biological target: human recombinant bradykinin B1 receptor (Homo sapiens, UniProt P46663); construct: host or cells: CHO cells, clone hB1-A5; assay: Human recombinant bradykinin B1 receptor competitive radioligand binding; conditions: hB1 expressed in CHO cells, [3H]-[Des-Arg10] Kallidin radioligand; read-out: B1 binding
Sequence (P46663 whole entry): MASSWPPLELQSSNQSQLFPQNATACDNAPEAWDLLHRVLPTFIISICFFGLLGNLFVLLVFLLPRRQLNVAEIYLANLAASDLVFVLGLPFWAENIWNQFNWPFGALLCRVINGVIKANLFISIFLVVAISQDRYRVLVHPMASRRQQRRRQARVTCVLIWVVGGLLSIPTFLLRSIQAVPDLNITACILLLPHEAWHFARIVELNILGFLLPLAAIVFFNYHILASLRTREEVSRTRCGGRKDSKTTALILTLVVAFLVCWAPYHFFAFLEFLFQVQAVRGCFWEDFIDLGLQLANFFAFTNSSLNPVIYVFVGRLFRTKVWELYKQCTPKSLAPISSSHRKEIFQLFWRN
REPORTED_METRIC: Ki

// Ki lookup, key: COc1ccc2c(c1)cc(-c1nnc(C)o1)n2-c1ccc(CNC(=O)C2(NC(=O)CC(F)(F)F)CC2)cc1 [Example 124]
20 to 100 nM

// Ki lookup, key: Cc1nc(-c2c(Cl)c3ccccc3n2-c2ccc(CNC(=O)C3(NC(=O)C(F)(F)F)CC3)cc2)no1 [Example 23]
< 20 nM

// Ki lookup, key: Cn1nnc(-c2c(Cl)c3ccccc3n2-c2ccc(CNC(=O)C3(NC(=O)c4cncc(C(F)(F)F)c4)CC3)cc2)n1 [Example 30]
< 20 nM

Now look at this one.
// Ki lookup, key: Cc1noc(-c2c(Cl)c3ccccc3n2-c2ccc(CNC(=O)C3(NC(=O)c4ccnc(F)c4)CC3)cc2)n1 [Example 113]
< 20 nM

Data origin, for the record: patent US20130217702A1
